- RUN DESCRIPTION: Toxicity liver stage against HepG2, at 10uM
- Assay type: cell-based
- Parameters: test concentration 10 uM, cell line HepG2-A16-CD81EGFP
- CONDITION PARAMETERS: human, HepG2-A16-CD81EGFP cells; read-out: INHIBITION
PROPERTY MEASURED: cytotoxicity at 10 µM
Just the number plus its unit, please.

Entry `c1ccc(CN2CC[C@@H]3O[C@@H](COCC4CCOCC4)CC[C@@H]32)nc1` has what cytotoxicity at 10 µM?
-1.98%

Entry CCOC(CC)C(=O)NCCC(=O)N1CCN(c2ccccn2)CC1 (configuration not stated) has what cytotoxicity at 10 µM?
-7.4%

Entry Cc1ccc(C(C)(C)CNC(=O)NC(C)Cn2cncn2)cc1 (configuration not stated) has what cytotoxicity at 10 µM?
3.09%

====

Known cytotoxicity at 10 µM of a selection of compounds
- RUN DESCRIPTION: Toxicity liver stage against HepG2, at 10uM
- Assay type: cell-based
- Set-up: test concentration 10 uM, cell line HepG2-A16-CD81EGFP
- CONDITION PARAMETERS: human, HepG2-A16-CD81EGFP cells; read-out: INHIBITION
Just the number please, in %, no unit attached.

These recorded examples may help you get a feel for the data.
[[record]]
compound = "CN(C)C(=O)c1ccc(C2CCCNC2)nc1 (centres undefined)"
property_measured = "cytotoxicity at 10 µM"
units_text = "%"
value_measured = -20.7

[[record]]
compound = "Cc1cnc(CN2CCCCC2c2nc(-c3ccccc3)no2)cn1 (centres undefined)"
property_measured = "cytotoxicity at 10 µM"
units_text = "%"
value_measured = -42

[[record]]
compound = "CC(C)N1CCC(CC(=O)NCCc2cc(O)ncn2)CC1"
property_measured = "cytotoxicity at 10 µM"
units_text = "%"
value_measured = 6.36

[[record]]
compound = "COc1ccc2nnc(CCC(=O)Nc3nc4c(s3)CCCCC4)n2n1"
property_measured = "cytotoxicity at 10 µM"
units_text = "%"
value_measured = 4.98

[[record]]
compound = "CN(C)CCO[C@H]1CN(CC2CC2)[C@@H]2CCCO[C@H]12"
property_measured = "cytotoxicity at 10 µM"
units_text = "%"
value_measured = -96.3

[[record]]
compound = "O=C(c1ccc2c(c1)OCO2)N1CCCC(n2ccnc2)C1 (centres undefined)"
property_measured = "cytotoxicity at 10 µM"
units_text = "%"
value_measured = -7.6


Entry O=C(NC(CC(F)(F)F)c1ccc(Cl)cc1)c1nc(=O)[nH][nH]1 (centres undefined) has what cytotoxicity at 10 µM?
-5.11

Entry OC1(CN2CCCC2)COCCN(c2noc(-c3ccccc3)n2)C1 (centres undefined) has what cytotoxicity at 10 µM?
0.726

Entry O=C(CCC1CCCC1)NCCn1nc(C2CCNC2)c2nccnc21 (centres undefined) has what cytotoxicity at 10 µM?
6.28

Entry `COCCN1CCO[C@H]2[C@H](OCc3cccc(C)n3)CC[C@@H]21` has what cytotoxicity at 10 µM?
-1.01

Entry CO[C@H]1CN(C(=O)OC(C)(C)C)CC1NCc1ccco1 (some centres undefined) has what cytotoxicity at 10 µM?
-46.9

Entry `CCOc1ncccc1NC(=O)N1CCCCCC1` has what cytotoxicity at 10 µM?
-6.36

Entry Cc1ccc(CC(=O)N2CCOCC2c2c(C)n[nH]c2C)cc1 (centres undefined) has what cytotoxicity at 10 µM?
5.12

====

Known cytotoxicity at 10 µM of a selection of molecules
- RUN DESCRIPTION: Toxicity liver stage against HepG2, at 10uM
- Assay type: cell-based
- Set-up: test concentration 10 uM, cell line HepG2-A16-CD81EGFP
- CONDITION PARAMETERS: human, HepG2-A16-CD81EGFP cells; read-out: INHIBITION
Just the number please, in %, no unit attached.

These recorded examples may help you get a feel for the data.
[[record]]
molecule = "COc1ccc(-c2csc(N)c2C#N)cc1"
units_text = "%"
value_measured = 4.07

[[record]]
molecule = "O=C(NC[C@]12COC[C@H]1CN(Cc1cccc(F)c1)C2)c1ccco1"
units_text = "%"
value_measured = -66.7

[[record]]
molecule = "CCn1ccnc1CN1CCN(c2ncnc3ccsc23)CC1"
units_text = "%"
value_measured = 5.39

[[record]]
molecule = "Cc1cc(C)n(CC2(CNC(=O)C(c3ccccc3C)N(C)C)CC2)n1 (stereo not drawn)"
units_text = "%"
value_measured = 1.79

[[record]]
molecule = "CCNc1ccnc(NCC2CNCCO2)n1 (stereo not drawn)"
units_text = "%"
value_measured = 3.71


Entry `CN(C)C(=O)CN1C[C@H]2CCN(C(=O)c3ccccc3)CC[C@H]2S1(=O)=O` has what cytotoxicity at 10 µM?
9.1

Entry Cc1nn(C)c(Cl)c1C1CCCN1Cc1nc(-c2ccco2)no1 (stereo not drawn) has what cytotoxicity at 10 µM?
-11.8

====

- RUN DESCRIPTION: Toxicity liver stage against HepG2, at 10uM
- Format: cell-based
- Parameters: test concentration 10 uM, cell line HepG2-A16-CD81EGFP
- CONDITION PARAMETERS: human, HepG2-A16-CD81EGFP cells; read-out: INHIBITION
PROPERTY MEASURED: cytotoxicity at 10 µM (%)
Just the number please, in %, no unit attached.

[[record]]
molecule = "CC(=O)N1CCCN(C(=O)NCc2cccnc2OC(C)C)CC1"
property_measured = "cytotoxicity at 10 µM"
value_measured = -5.5


Entry CC(NCc1ccc(F)cc1)c1ccc(S(C)(=O)=O)cc1 (stereo unspecified) has what cytotoxicity at 10 µM?
12.6

Entry c1cnc(N2CCN(C3CCC[C@@H]4CN(CC5CC5)C[C@H]34)CC2)nc1 (stereo partly specified) has what cytotoxicity at 10 µM?
8.97

Entry c1ccc(Cc2nc(CN3CCCC3Cn3cncn3)cs2)cc1 (stereo unspecified) has what cytotoxicity at 10 µM?
-2.54

Entry `FC(F)(F)c1ccccc1CN1CCOC[C@H](Oc2cccnc2)C1` has what cytotoxicity at 10 µM?
4.3

Entry CCCn1cnnc1CN(C)C(=O)C1CCCN(C2CCN(C)CC2)C1 (stereo unspecified) has what cytotoxicity at 10 µM?
-6.58

====

- RUN DESCRIPTION: Toxicity liver stage against HepG2, at 10uM
- Type: cell-based
- Parameters: test concentration 10 uM, cell line HepG2-A16-CD81EGFP
- CONDITION PARAMETERS: human, HepG2-A16-CD81EGFP cells; read-out: INHIBITION
Known cytotoxicity at 10 µM of a selection of compounds
Just the number please, in %, no unit attached.

These recorded examples may help you get a feel for the data.
[[record]]
compound = "CC(=O)c1ccc(Nc2nc(N)nc3c2nc(C)n3C)cc1"
units_text = "%"
value_measured = -8.23

[[record]]
compound = "CCn1ncc2c1C(COC)CN(Cc1ccc(OC)cc1)C2 (configuration not stated)"
units_text = "%"
value_measured = 11.4

[[record]]
compound = "CN1CCC(c2[nH]ncc2S(C)(=O)=O)CC1"
units_text = "%"
value_measured = -7.06

[[record]]
compound = "O=C(Nc1cnc(Oc2ccccc2)nc1)C1CC1"
units_text = "%"
value_measured = 0.174

[[record]]
compound = "CC(=O)c1ccc(Cl)c(Cl)c1OCC(=O)NC(N)=O"
units_text = "%"
value_measured = 7.49

[[record]]
compound = "CSc1ccsc1C(=O)NS(=O)(=O)c1cnn(C)c1"
units_text = "%"
value_measured = -5.35

[[record]]
compound = "CN1CCN([C@@H]2CCN(CC3CCOC3)[C@H]2Cc2cnn(C)c2)CC1 (some centres not stated)"
units_text = "%"
value_measured = 5.25

[[record]]
compound = "Cc1cccc(OCCCNC(=O)Cn2ccc(C)cc2=O)c1"
units_text = "%"
value_measured = -4.42

[[record]]
compound = "COCCN(Cc1ccc(F)cc1Cl)C(=O)c1cnn(C)c1C"
units_text = "%"
value_measured = 12.8

[[record]]
compound = "CC1CCC(NS(=O)(=O)CC(=O)NCC2CCC2)CC1 (configuration not stated)"
units_text = "%"
value_measured = -3.17


Entry Cc1cccc(OCCCNC(=O)NC(C)c2nncn2C)c1 (configuration not stated) has what cytotoxicity at 10 µM?
-7.5

Entry `COc1ccc(C[C@@H]2CC[C@H](CN(C)C3CCN(C)CC3)O2)cc1` has what cytotoxicity at 10 µM?
-7.25

====

- RUN DESCRIPTION: Toxicity liver stage against HepG2, at 10uM
- Type: cell-based
- Parameters: test concentration 10 uM, cell line HepG2-A16-CD81EGFP
- CONDITION PARAMETERS: human, HepG2-A16-CD81EGFP cells; read-out: INHIBITION
Known cytotoxicity at 10 µM of a selection of compounds
Just the number please, in %, no unit attached.

[[record]]
compound = "CC(=O)N(Cc1noc(C)n1)C1CCN(Cc2cnc(C)s2)C1 (configuration not stated)"
units_text = "%"
value_measured = -9.65

[[record]]
compound = "O=C1NCCO[C@H]2CN(C(=O)Cc3ccco3)CC[C@@H]12"
units_text = "%"
value_measured = -105

[[record]]
compound = "CNc1cccc(C2CCCN(C(=O)c3cnccn3)C2)n1 (configuration not stated)"
units_text = "%"
value_measured = -19.2

[[record]]
compound = "Cc1noc(C)c1-c1ccnc(C2CCN(S(=O)(=O)N(C)C)CC2)c1"
units_text = "%"
value_measured = -25

[[record]]
compound = "Cc1oc(C)c(C(=O)NCc2ccccn2)c1C"
units_text = "%"
value_measured = -0.729

[[record]]
compound = "CC(C)Oc1ccc(CN2CCN3CCN(C)CC3C2)cc1CO (configuration not stated)"
units_text = "%"
value_measured = -3.42


Entry CCOCC1c2c(ncn2C(C)C)CCN1C(=O)CC (configuration not stated) has what cytotoxicity at 10 µM?
4.17

Entry `COc1ccc(OCCNc2cccc(C(=O)N3CCOCC3)c2)cc1` has what cytotoxicity at 10 µM?
7.08

Entry CCC(=O)Nc1ccc(OCC(=O)N(C)C(C)c2ccon2)cc1 (configuration not stated) has what cytotoxicity at 10 µM?
5.22
